Ref: ChEMBL document CHEMBL1201862

- System: T47D
- Protocol text: NCI tumour cell line growth inhibition, 48 h
Active and inactive are the calls of the source. Cut-off read from the data, not from the text of the source: active = GI50 up to about 1.1 µM and inactive = higher.
Response enum: active, inactive

Would you please look over these solved cases?
INSERT INTO results (compound, category_label) VALUES
  ('O=C(OCc1ccccc1)N1CCNCCN(C(=O)OCc2ccccc2)CCNCC1', 'active'),
  ('COC(=O)/C=C(\CC(=O)OC)n1nnnc1[C@@H]1C[C@H](COC(c2ccccc2)(c2ccccc2)c2ccccc2)[C@H]2OC(C)(C)O[C@H]21', 'inactive'),
  ('O=C(N/N=C\c1cccs1)c1ccncc1', 'inactive');

Field: outcome | Entry: CCCC(O)c1cn(C(NC(=O)c2ccccc2)P(=O)(OCC)OCC)nn1 (centres undefined)
inactive
